target_or_test_system: hCA I (Homo sapiens, UniProt P00915)
Construct: gene CA1; recombinant, obtained in-house as reported earlier
Sequence (P00915 2-261): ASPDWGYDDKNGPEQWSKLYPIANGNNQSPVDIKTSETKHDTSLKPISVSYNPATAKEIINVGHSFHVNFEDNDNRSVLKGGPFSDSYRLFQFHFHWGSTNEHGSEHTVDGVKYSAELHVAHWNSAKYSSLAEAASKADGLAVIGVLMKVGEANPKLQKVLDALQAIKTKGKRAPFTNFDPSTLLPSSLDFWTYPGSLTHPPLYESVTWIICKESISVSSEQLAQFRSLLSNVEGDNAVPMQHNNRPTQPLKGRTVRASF
procedure_summary: stopped-flow CO2 hydrase assay
Type: biochemical
assay_context: pH […] Hepes […], […] Na2SO4, CO2 substrate, […] min preincubation at room temperature
attribute_measured: Ki (nM)

COc1ccc(/C=C/C(=O)/C=C/c2ccc(S(N)(=O)=O)cc2)c(OC)c1OC [5f] ... 192

* * *

target_or_test_system: hCA XII (Homo sapiens)
Construct: gene CA12; recombinant, obtained in-house as reported earlier
procedure_summary: stopped-flow CO2 hydrase assay
Type: biochemical
Attribute: Ki
attribute_measured: Ki (nM)

COc1ccc(/C=C/C(=O)/C=C/c2ccc(S(N)(=O)=O)cc2)c(OC)c1OC ... 71.8
NS(=O)(=O)c1ccc(/C=C/C(=O)/C=C/c2ccc(Cl)cc2)cc1 ... 31.1
COc1ccc(OC)c(/C=C/C(=O)/C=C/c2ccc(S(N)(=O)=O)cc2)c1 ... 8.1
COc1ccc(/C=C/C(=O)/C=C/c2ccc(S(N)(=O)=O)cc2)c(F)c1 ... 68
COc1ccc(/C=C/C(=O)/C=C/c2ccc(S(N)(=O)=O)cc2)c(OC)c1 ... 7.4

* * *

target_or_test_system: hCA XII (Homo sapiens, UniProt O43570)
Construct: gene CA12; recombinant, obtained in-house as reported earlier
Sequence (O43570 25-354): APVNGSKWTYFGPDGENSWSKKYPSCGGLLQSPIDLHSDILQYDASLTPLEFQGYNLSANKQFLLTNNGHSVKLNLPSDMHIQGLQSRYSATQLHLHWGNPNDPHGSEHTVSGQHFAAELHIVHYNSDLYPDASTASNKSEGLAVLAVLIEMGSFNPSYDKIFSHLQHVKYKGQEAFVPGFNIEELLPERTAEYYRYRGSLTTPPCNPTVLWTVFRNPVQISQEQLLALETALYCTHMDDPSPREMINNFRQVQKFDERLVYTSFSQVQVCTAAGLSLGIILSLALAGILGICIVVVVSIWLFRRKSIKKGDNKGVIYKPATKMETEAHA
procedure_summary: stopped-flow CO2 hydrase assay
Assay type: biochemical
Attribute: Ki
attribute_measured: Ki (nM)

COc1ccc(/C=C/C(=O)/C=C/c2ccc(S(N)(=O)=O)cc2)cc1OC ... 52.2
COc1cc(/C=C/C(=O)/C=C/c2ccc(S(N)(=O)=O)cc2)cc(OC)c1OC ... 25
CC(C)Oc1ccc(/C=C/C(=O)/C=C/c2ccc(S(N)(=O)=O)cc2)cc1 ... 6.1
COc1ccc(/C=C/C(=O)/C=C/c2ccc(S(N)(=O)=O)cc2)cc1 ... 6.3
COc1cc(OC)c(/C=C/C(=O)/C=C/c2ccc(S(N)(=O)=O)cc2)c(OC)c1 ... 7.4

* * *

target_or_test_system: hCA IX (Homo sapiens)
Construct: gene CA9; recombinant, obtained in-house as reported earlier
procedure_summary: stopped-flow CO2 hydrase assay
Type: biochemical
attribute_measured: Ki (nM)

COc1ccc(/C=C/C(=O)/C=C/c2ccc(S(N)(=O)=O)cc2)c(OC)c1OC [5f] ... 2.4
COc1ccc(/C=C/C(=O)/C=C/c2ccc(S(N)(=O)=O)cc2)cc1 [5b] ... 8.6
COc1ccc(OC)c(/C=C/C(=O)/C=C/c2ccc(S(N)(=O)=O)cc2)c1 [5d] ... 8.4
COc1ccc(/C=C/C(=O)/C=C/c2ccc(S(N)(=O)=O)cc2)c(F)c1 [5j] ... 61
COc1ccc(/C=C/C(=O)/C=C/c2ccc(S(N)(=O)=O)cc2)c(OC)c1 [5c] ... 7.5
NS(=O)(=O)c1ccc(/C=C/C(=O)/C=C/c2ccc(Cl)cc2)cc1 [5i] ... 87.3
CC(C)Oc1ccc(/C=C/C(=O)/C=C/c2ccc(S(N)(=O)=O)cc2)cc1 [5a] ... 2.3
COc1cc(OC)c(/C=C/C(=O)/C=C/c2ccc(S(N)(=O)=O)cc2)c(OC)c1 [5g] ... 2.4

* * *

target_or_test_system: hCA II (Homo sapiens)
Construct: gene CA2; recombinant, obtained in-house as reported earlier
procedure_summary: stopped-flow CO2 hydrase assay
Type: biochemical
attribute_measured: Ki (nM)

COc1ccc(/C=C/C(=O)/C=C/c2ccc(S(N)(=O)=O)cc2)c(F)c1 [5j] ... 8.2
CC(C)Oc1ccc(/C=C/C(=O)/C=C/c2ccc(S(N)(=O)=O)cc2)cc1 [5a] ... 7.9
NS(=O)(=O)c1ccc(/C=C/C(=O)/C=C/c2ccc(Cl)cc2)cc1 [5i] ... 8.1
